System: Caco-2 cells (clone C2BBe1); note: unit not given here
conditionLabel: human, Caco-2

lineNotation | Caco2 A to B
CC(C)OC(=O)OC[C@H]1O[C@@](C#N)(c2ccc3c(N)ncnn23)[C@@H]2OC(=O)CCCCC(=O)O[C@@H]21 | 4.31
COC(C)(C)COC(=O)OC[C@H]1O[C@@](C#N)(c2ccc3c(N)ncnn23)[C@@H]2OC(=O)CC(C)(C)CC(=O)O[C@@H]21 | 2
CC1(C)CC(=O)O[C@H]2[C@@H](OC(=O)C1)[C@](C#N)(c1ccc3c(N)ncnn13)O[C@@H]2COC(=O)OCC1(C#N)CC1 | 0.54
CC(C)(OC(=O)OC[C@H]1O[C@@](C#N)(c2ccc3c(N)ncnn23)[C@@H]2OC(=O)CCCC(=O)O[C@@H]21)c1ccncc1 | 2.97
COC(=O)OC[C@H]1O[C@@](C#N)(c2ccc3c(N)ncnn23)[C@@H]2OC(=O)CCCC(=O)O[C@@H]21 | 2.1
CC(C)OC(=O)OC[C@H]1O[C@@](C#N)(c2ccc3c(N)ncnn23)[C@@H]2OC(=O)CCC=CCCC(=O)O[C@@H]21 | 18.29

----------
Reported Caco2 B to A is given for each of the following compounds.
Test system: Caco-2 cells (clone C2BBe1); note: unit not given here
conditionLabel: human, Caco-2
measurementName: Caco2 B to A

compound | measurementName | endpointResult
CC(C)OC(=O)OC[C@H]1O[C@@](C#N)(c2ccc3c(N)ncnn23)[C@@H]2OC(=O)CN(C)CC(=O)O[C@@H]21 [Compound C4] | Caco2 B to A | 2
CC(C)OC(=O)OC[C@H]1O[C@@](C#N)(c2ccc3c(N)ncnn23)[C@@H]2OC(=O)CCCCC(=O)O[C@@H]21 [Compound C7] | Caco2 B to A | 9.89
CCOC(=O)OC[C@H]1O[C@@](C#N)(c2ccc3c(N)ncnn23)[C@@H]2OC(=O)CCCC(=O)O[C@@H]21 [Compound C12] | Caco2 B to A | 5.31

----------
assayInfo: in vitro
Type: in vitro ADME
conditionLabel: human, s9, pH 7.4
measurementName: half-life at 2 μM

compound | endpointResult
CC1(C)CC(=O)O[C@H]2[C@@H](OC(=O)C1)[C@](C#N)(c1ccc3c(N)ncnn13)O[C@@H]2COC(=O)OC1CCCC1 | 5.15 min
COC(=O)[C@H]([C@@H](C)OC(=O)OC[C@H]1O[C@@](C#N)(c2ccc3c(N)ncnn23)[C@@H]2OC(=O)CCCC(=O)O[C@@H]21)N(C)C [Compound C31, 2,2,2-trifluoroacetate] | 0.57 min
CC(C)OC(=O)OC[C@H]1O[C@@](C#N)(c2ccc3c(N)ncnn23)C2OC(=O)CCC(=O)OC21 (stereo partly drawn) | 0.716 min

----------
assayInfo: in vitro
conditionLabel: human, plasma

compound | half-life at 2 μM [min]
N#C[C@@]1(c2ccc3c(N)ncnn23)O[C@H](COC(=O)C2CCC2)[C@H]2OC(=O)CCCC(=O)O[C@H]21 [Compound C57] | 7.33
CC1(C)CC(=O)O[C@H]2[C@@H](OC(=O)C1)[C@](C#N)(c1ccc3c(N)ncnn13)O[C@@H]2COC(=O)OC1CCOC1 (some centres unmarked) [Compound C40] | 72.5
CC(C)(OC(=O)OC[C@H]1O[C@@](C#N)(c2ccc3c(N)ncnn23)[C@@H]2OC(=O)CCCC(=O)O[C@@H]21)C(F)F [Compound C25] | 11.9
CC(C)OC(=O)OC[C@H]1O[C@@](C#N)(c2ccc3c(N)ncnn23)[C@@H]2OC(=O)CCCC(=O)O[C@@H]21 [Compound C2] | 7.8
COC(=O)[C@H]([C@@H](C)OC(=O)OC[C@H]1O[C@@](C#N)(c2ccc3c(N)ncnn23)[C@@H]2OC(=O)CC(C)(C)CC(=O)O[C@@H]21)N(C)C [Compound C48] | 20.3
